Tested on: NEK2
reported_conditions: concentration: 1 μM, replicates: in singlicate; n = 1;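 also: KINOMEscan kinase panel screen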
recorded_metric: %Inh (%)

> print(dat)
                                   molecule  recorded.metric  result.number
1  CCS(=O)c1ccc(-c2coc3ccc(-c4nnc(C)o4)cc23)cc1 (stereo not drawn)             %Inh              0
2  Cc1nnc(-c2ccc3ncn(-c4ccc(S(C)=O)cc4)c3c2)o1 (stereo not drawn)             %Inh              0
3    Nc1ncnc2c1ncn2-c1cccc(F)c1 [SKF-97560]             %Inh              0
4  COc1ccc(-c2coc3ccc(-c4nnc(SCc5cccc(C#N)c5)o4)cc23)cc1             %Inh              5
5  OCCCNc1nccc(-c2c(-c3cccc(C(F)(F)F)c3)nn3cc(C(F)(F)F)ccc23)n1 [GW630813]             %Inh              0
6  CCC(=O)c1c(-c2ccccc2)c2cc(Cl)ccc2c(=O)n1Cc1cc(S(C)(=O)=O)n(CC(F)F)n1             %Inh              0

---

System: ERK3
Construct: gene MAPK6
reported_conditions: concentration: 1 μM, replicates: in singlicate; n = 1
// reported %Inh per item
recorded_metric: %Inh (%)

> print(dat)
                                    molecule  recorded.metric  unit.info  result.number
 1  Cl.NS(=O)(=O)c1cccc(Nc2cc(-c3ccc(F)cc3)n[nH]2)c1             %Inh          %              0
 2  COc1cc2ncn(-c3cc(OCc4ccncc4Br)c(C(N)=O)s3)c2cc1OC             %Inh          %              0
 3  COc1cccc(C2=C(N(C)c3ccccc3)C(=O)NC2=O)c1             %Inh          %              0
 4  COc1ccc(-c2cc3c(C)nc(N)nc3n([C@H]3CC[C@H](OCCO)CC3)c2=O)cn1             %Inh          %              0
 5  COc1ccc(CNC(=O)NC2CCN(c3ccnc(Nc4ccc(F)cc4)n3)C2)cc1 (stereo not drawn)             %Inh          %             14
 6  COc1ccc(Nc2nccc(N3CCC(NS(=O)(=O)c4ccc(NC(C)=O)cc4)C3)n2)cc1 (stereo not drawn)             %Inh          %              6
 7  CCS(=O)c1ccc(-c2coc3ccc(-c4nnc(C)o4)cc23)cc1 (stereo not drawn)             %Inh          %              0
 8  CCS(=O)(=O)c1ccc(OC)c(Nc2ncc(-c3ccc(F)cc3)o2)c1.Cl             %Inh          %             13
 9  Cc1cc(Nc2nc(-c3cccc(C)n3)nc3ccccc23)ccn1             %Inh          %              0
10     Nc1nc(-c2ccccc2F)c(-c2ccnc3ccccc23)s1             %Inh          %              0
11  O=C(NCCNc1ccnc(Nc2ccc(F)cc2)n1)Nc1ccc2c(c1)OCO2             %Inh          %              9
12  COc1cc2ncn(-c3cc(OCCCc4ccccc4)c(C(N)=O)s3)c2cc1OC             %Inh          %              0
